Taken from PubChem BioAssay AID1159580.

PROCEDURE_TEXT: chemical genetic growth profiling, strain panel (AID 1159580);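 note: tested at 20 µM; growth read once vehicle control cultures reached saturation at 30 °C; 1 = growth at the plate median or of vehicle wells; lower values mean less growth of the strain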
CONDITION_INFO: S. cerevisiae deletion strains, growth OD, locus YJL129C, strain trk1, hits give low values
Hit rate of the full screen: of about 5,500 compounds, about 2,000 (36%) were called active. Another 18% or so got no clear call; they are omitted. Some of the results follow.

[
  {
    "MOLECULE": "Nc1ncnc2c1ncn2[C@@H]1O[C@H](CO)[C@@H](O)[C@@H]1O",
    "normalized growth": 1.01
  },
  {
    "MOLECULE": "C[N+]1(C)CCc2cc3c(cc2[C@H]1C1OC(=O)c2c1ccc1c2OCO1)OCO3 (stereo partly specified)",
    "normalized growth": 1
  },
  {
    "MOLECULE": "COc1cc(OC)c(C(C)=O)c(O)c1C",
    "normalized growth": 0.903
  },
  {
    "MOLECULE": "O=c1c(-c2ccc3c(c2)OCO3)coc2cc(O)ccc12",
    "normalized growth": 0.99
  },
  {
    "MOLECULE": "COc1c2c(cc3occ(-c4ccc5c(c4)OCO5)c(=O)c13)OC(C)(C)C=C2",
    "normalized growth": 0.937
  },
  {
    "MOLECULE": "O=C(CCCN1CC=C(n2c(=O)[nH]c3ccccc32)CC1)c1ccc(F)cc1",
    "normalized growth": 0.939
  },
  {
    "MOLECULE": "CCS(=O)(=O)CCn1c([N+](=O)[O-])cnc1C",
    "normalized growth": 1
  },
  {
    "MOLECULE": "Nc1ncnc2nc[nH]c12",
    "normalized growth": 0.99
  },
  {
    "MOLECULE": "CC(=O)OCC(=O)[C@@]1(O)CCC2C3CCC4=CC(=O)CC[C@]4(C)[C@@]3(F)[C@@H](O)C[C@@]21C (stereo partly specified)",
    "normalized growth": 1.03
  },
  {
    "MOLECULE": "CC(C)=CCc1c(O)cc2occ(-c3ccc4c(c3)OCO4)c(=O)c2c1O",
    "normalized growth": 0.923
  },
  {
    "MOLECULE": "COc1cc2c(cc1-c1coc3c4c(c(OC)cc3c1=O)OC(C)(C)C=C4)OCO2",
    "normalized growth": 1.03
  }
]

---

PROCEDURE_TEXT: chemical genetic growth profiling, strain panel (AID 1159580);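 note: tested at 20 µM; growth read once vehicle control cultures reached saturation at 30 °C; 1 = growth at the plate median or of vehicle wells; lower values mean less growth of the strain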
CONDITION_INFO: S. cerevisiae deletion strains, growth OD, locus YLR357W, strain rsc2, hits give low values
The campaign covered roughly 5,500 compounds. About 2,000 (36%) were called active. Another 18% or so got no clear call; they are omitted. The list shows a part of the results.
# Lookup of reported normalized growth keyed by entry
REPORTED_METRIC: normalized growth

[
  {
    "MOLECULE": "COc1c2occc2cc2ccc(=O)oc12",
    "REPORTED_METRIC": "normalized growth",
    "OBS_VALUE": 1.01
  },
  {
    "MOLECULE": "COc1cc(O)c(C(=O)O)c(O)c1",
    "REPORTED_METRIC": "normalized growth",
    "OBS_VALUE": 1.01
  },
  {
    "MOLECULE": "COc1c(O)cc(O)cc1O",
    "REPORTED_METRIC": "normalized growth",
    "OBS_VALUE": 0.958
  },
  {
    "MOLECULE": "COc1ccc2c(c1)[nH]c1c(C)nccc12",
    "REPORTED_METRIC": "normalized growth",
    "OBS_VALUE": 0.978
  },
  {
    "MOLECULE": "COc1cc(O)c(C(C)=O)c(OC)c1",
    "REPORTED_METRIC": "normalized growth",
    "OBS_VALUE": 1.01
  },
  {
    "MOLECULE": "O=C1c2ccccc2C(=O)c2c1ccc(O)c2O",
    "REPORTED_METRIC": "normalized growth",
    "OBS_VALUE": 0.579
  },
  {
    "MOLECULE": "CC(=O)OC1CCC2C3CCc4cc(O)ccc4C3CCC12C (stereo not drawn)",
    "REPORTED_METRIC": "normalized growth",
    "OBS_VALUE": 0.848
  },
  {
    "MOLECULE": "C[C@]12C=CC(=O)C=C1CCC1C2C(=O)C[C@@]2(C)C1CC[C@]2(O)C(=O)CO (stereo partly drawn)",
    "REPORTED_METRIC": "normalized growth",
    "OBS_VALUE": 0.992
  },
  {
    "MOLECULE": "CSCCC(NC=O)C(=O)NC(CC(C)C)C(=O)NC(Cc1ccccc1)C(=O)O (stereo not drawn)",
    "REPORTED_METRIC": "normalized growth",
    "OBS_VALUE": 0.971
  },
  {
    "MOLECULE": "CC(=O)O[C@H]1CC2CCC3C(CC[C@@]4(C)C3C[C@H]([N+]3(C)CCCCC3)[C@@H]4OC(C)=O)[C@@]2(C)C[C@@H]1[N+]1(C)CCCCC1 (stereo partly drawn)",
    "REPORTED_METRIC": "normalized growth",
    "OBS_VALUE": 0.991
  },
  {
    "MOLECULE": "COc1cc(OC)c(C(C)=O)c(O)c1C",
    "REPORTED_METRIC": "normalized growth",
    "OBS_VALUE": 0.942
  },
  {
    "MOLECULE": "Cn1c(=O)[nH]c(=O)c2[nH]cnc21",
    "REPORTED_METRIC": "normalized growth",
    "OBS_VALUE": 0.971
  },
  {
    "MOLECULE": "CC(C)CCCC(C)[C@H]1CCC2C3CC[C@H]4CC(=O)CC[C@]4(C)C3CC[C@@]21C (stereo partly drawn)",
    "REPORTED_METRIC": "normalized growth",
    "OBS_VALUE": 0.996
  },
  {
    "MOLECULE": "CCS(=O)(=O)CCn1c([N+](=O)[O-])cnc1C",
    "REPORTED_METRIC": "normalized growth",
    "OBS_VALUE": 0.999
  },
  {
    "MOLECULE": "C[C@]12C=CC(=O)C=C1CCC1C2CC[C@]2(C)C(=O)CCC12 (stereo partly drawn)",
    "REPORTED_METRIC": "normalized growth",
    "OBS_VALUE": 1.01
  },
  {
    "MOLECULE": "COc1c2c(cc3occ(-c4ccc5c(c4)OCO5)c(=O)c13)OC(C)(C)C=C2",
    "REPORTED_METRIC": "normalized growth",
    "OBS_VALUE": 1.02
  },
  {
    "MOLECULE": "Cc1nccc2c1[nH]c1ccccc12",
    "REPORTED_METRIC": "normalized growth",
    "OBS_VALUE": 1.04
  },
  {
    "MOLECULE": "Cc1cc(O)c2c(c1O)C(=O)c1c(O)cc(C)c(O)c1C2=O",
    "REPORTED_METRIC": "normalized growth",
    "OBS_VALUE": 0.976
  },
  {
    "MOLECULE": "C[C@]12CCC3c4ccc(O)cc4CCC3C1CC[C@@H]2OC(=O)CCC1CCCC1 (stereo partly drawn)",
    "REPORTED_METRIC": "normalized growth",
    "OBS_VALUE": 1.03
  },
  {
    "MOLECULE": "CC(C)=CCc1c(O)cc2occ(-c3ccc4c(c3)OCO4)c(=O)c2c1O",
    "REPORTED_METRIC": "normalized growth",
    "OBS_VALUE": 0.948
  },
  {
    "MOLECULE": "COc1cc2c(cc1-c1coc3c4c(c(OC)cc3c1=O)OC(C)(C)C=C4)OCO2",
    "REPORTED_METRIC": "normalized growth",
    "OBS_VALUE": 1.12
  },
  {
    "MOLECULE": "O=c1ccc2ccc(O)c(O)c2o1",
    "REPORTED_METRIC": "normalized growth",
    "OBS_VALUE": 1
  },
  {
    "MOLECULE": "C=C1CC2C(CCC3(C)C(=O)CCC23)C2(C)C=CC(=O)C=C12 (stereo not drawn)",
    "REPORTED_METRIC": "normalized growth",
    "OBS_VALUE": 0.991
  }
]
